Data provenance: paper PMC11035515

Measured Cmax, listed per entry for reference.
- Study system: CYP2D6 (Homo sapiens, UniProt P10635)
- Sequence (P10635 whole entry): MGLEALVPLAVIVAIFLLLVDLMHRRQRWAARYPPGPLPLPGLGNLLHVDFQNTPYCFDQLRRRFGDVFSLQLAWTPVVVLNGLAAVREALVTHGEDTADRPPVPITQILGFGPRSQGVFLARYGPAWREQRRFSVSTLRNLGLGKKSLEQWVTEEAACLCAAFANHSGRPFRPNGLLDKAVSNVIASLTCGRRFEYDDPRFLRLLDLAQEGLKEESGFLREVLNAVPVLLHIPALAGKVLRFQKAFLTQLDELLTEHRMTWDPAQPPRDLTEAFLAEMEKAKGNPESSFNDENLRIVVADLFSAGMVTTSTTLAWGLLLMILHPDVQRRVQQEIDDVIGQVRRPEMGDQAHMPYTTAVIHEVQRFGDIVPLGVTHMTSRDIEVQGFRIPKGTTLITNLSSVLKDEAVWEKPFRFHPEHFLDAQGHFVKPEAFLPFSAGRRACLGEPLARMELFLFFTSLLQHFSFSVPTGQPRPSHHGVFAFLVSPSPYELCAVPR
- Test details: Study 2
- Measurement context: human, plasma, po, 30 mg
Write your answer as a measured quantity: the number, then the unit.

>>> reported_value("COc1ccc2c(c1)[C@]13CCCC[C@@H]1[C@H](C2)N(C)CC3 [dextromethorphan]")
"2.2 ng/mL"

Now consider a different compound.
Look at this compound and give its reported Cmax. CN1CC[C@@]23CCCC[C@@H]2[C@@H]1Cc1ccc(O)cc13 [dextrorphan]
4.9 ng/mL

====

- Study system: P-glycoprotein (P-gp) (Homo sapiens)
- Sequence (P08183 whole entry): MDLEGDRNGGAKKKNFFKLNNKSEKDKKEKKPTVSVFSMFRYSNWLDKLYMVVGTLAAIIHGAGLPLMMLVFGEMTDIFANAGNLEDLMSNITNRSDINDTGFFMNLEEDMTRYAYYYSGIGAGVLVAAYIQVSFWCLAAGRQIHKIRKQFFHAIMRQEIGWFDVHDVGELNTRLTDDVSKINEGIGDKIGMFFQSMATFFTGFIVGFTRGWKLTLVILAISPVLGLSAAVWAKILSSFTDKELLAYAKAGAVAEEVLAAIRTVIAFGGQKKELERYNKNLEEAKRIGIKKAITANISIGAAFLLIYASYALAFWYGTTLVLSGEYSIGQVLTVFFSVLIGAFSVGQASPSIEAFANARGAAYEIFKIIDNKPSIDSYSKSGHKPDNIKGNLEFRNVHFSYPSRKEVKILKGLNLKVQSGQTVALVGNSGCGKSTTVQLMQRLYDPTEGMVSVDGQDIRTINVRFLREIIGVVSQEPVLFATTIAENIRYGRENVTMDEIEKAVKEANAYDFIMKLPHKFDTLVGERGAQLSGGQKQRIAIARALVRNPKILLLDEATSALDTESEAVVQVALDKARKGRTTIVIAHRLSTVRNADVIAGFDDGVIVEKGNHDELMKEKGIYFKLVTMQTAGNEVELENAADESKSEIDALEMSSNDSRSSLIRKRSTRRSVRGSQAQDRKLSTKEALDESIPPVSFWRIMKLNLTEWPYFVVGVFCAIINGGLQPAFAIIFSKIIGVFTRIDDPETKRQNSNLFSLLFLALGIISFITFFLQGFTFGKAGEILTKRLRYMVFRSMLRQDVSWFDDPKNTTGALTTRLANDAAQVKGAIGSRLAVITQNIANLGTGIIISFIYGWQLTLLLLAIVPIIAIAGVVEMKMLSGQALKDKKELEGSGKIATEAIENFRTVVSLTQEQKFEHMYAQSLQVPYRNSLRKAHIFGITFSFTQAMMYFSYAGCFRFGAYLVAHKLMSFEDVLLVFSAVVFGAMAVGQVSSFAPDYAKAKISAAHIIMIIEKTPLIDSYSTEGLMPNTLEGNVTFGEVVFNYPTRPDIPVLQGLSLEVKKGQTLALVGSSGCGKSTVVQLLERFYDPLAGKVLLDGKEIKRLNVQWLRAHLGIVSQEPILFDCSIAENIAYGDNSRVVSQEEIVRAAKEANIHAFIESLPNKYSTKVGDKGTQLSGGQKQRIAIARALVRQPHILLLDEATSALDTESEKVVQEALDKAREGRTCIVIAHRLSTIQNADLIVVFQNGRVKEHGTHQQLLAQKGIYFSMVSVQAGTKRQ
- Test details: Efflux transporter assay in Caco-2 cells, P-gp inhibition
Measure: pIC50
# pIC50 = -log10(concentration in molar units)

Look at this molecule and give its reported pIC50. CCC(=O)C(C[C@H](C)N(C)C)(c1ccccc1)c1ccccc1
5.03
